- run description: xn = mol fraction of the nth substance listed, in the solute-free solvent
- run parameters: 283.15 K; x2 = 0.1666
What solubility (g/100 g solution) was measured for each of the following?
Respond using a number only.

Exercise: Look at this compound and give its reported solubility (g/100 g solution). Cc1ccc2cc(Br)ccc2n1 + CC(C)O + O
Solution: 0.427

Exercise: Next entry: Nc1cccc2ccncc12 + CC(C)O + O
Solution: 0.393

Exercise: Next entry: CN1CCC(N(Cc2cccs2)c2ccccc2)CC1 + CCCO + O
Solution: 1.11

Exercise: Next entry: Nc1cccc2ccncc12 + CCCO + O
Solution: 0.493

Exercise: Next entry: CN1CCC(N(Cc2cccs2)c2ccccc2)CC1 + CC(C)O + O
Solution: 0.881

###

- run description: xn = mol fraction of the nth substance listed, in the solute-free solvent
- run parameters: 278.15 K; x2 = 0.3103
What solubility (g/100 g solution) was measured for each of the following?
Respond using a number only.

Exercise: Look at this compound and give its reported solubility (g/100 g solution). Nc1cccc2ccncc12 + CC(C)O + O
Solution: 0.5

Exercise: Next entry: CN1CCC(N(Cc2cccs2)c2ccccc2)CC1 + CC(C)O + O
Solution: 1.24

Exercise: Next entry: CN1CCC(N(Cc2cccs2)c2ccccc2)CC1 + CCCO + O
Solution: 1.55

Exercise: Next entry: Nc1cccc2ccncc12 + CCCO + O
Solution: 0.618

Exercise: Next entry: Cc1ccc2cc(Br)ccc2n1 + CC(C)O + O
Solution: 0.482

###

What solubility (g/100 g solution) was measured for each of the following?
- run description: xn = mol fraction of the nth substance listed, in the solute-free solvent
- run parameters: 318.15 K; x2 = 0.1139
Respond using a number only.

Exercise: Look at this molecule and give its reported solubility (g/100 g solution). Nc1cccc2ccncc12 + CC(C)O + O
Solution: 0.702

Exercise: Next entry: CN1CCC(N(Cc2cccs2)c2ccccc2)CC1 + CCCO + O
Solution: 1.3

Exercise: Next entry: CN1CCC(N(Cc2cccs2)c2ccccc2)CC1 + CC(C)O + O
Solution: 1.03

Exercise: Next entry: Cc1ccc2cc(Br)ccc2n1 + CC(C)O + O
Solution: 0.74

Exercise: Next entry: Nc1cccc2ccncc12 + CCCO + O
Solution: 0.87

###

- run description: xn = mol fraction of the nth substance listed, in the solute-free solvent
- run parameters: 303.15 K; x2 = 0.03225
What solubility (g/100 g solution) was measured for each of the following?
Respond using a number only.

Exercise: Look at this compound and give its reported solubility (g/100 g solution). Nc1cccc2ccncc12 + CC(C)O + O
Solution: 0.142

Exercise: Next entry: CN1CCC(N(Cc2cccs2)c2ccccc2)CC1 + CCCO + O
Solution: 0.243

Exercise: Next entry: Cc1ccc2cc(Br)ccc2n1 + CC(C)O + O
Solution: 0.0974

Exercise: Next entry: CN1CCC(N(Cc2cccs2)c2ccccc2)CC1 + CC(C)O + O
Solution: 0.208

Exercise: Next entry: Nc1cccc2ccncc12 + CCCO + O
Solution: 0.162

###

- run description: xn = mol fraction of the nth substance listed, in the solute-free solvent
- run parameters: 303.15 K; x2 = 0.2307
test readout: solubility (g/100 g solution)
Respond using a number only.

Exercise: Look at this molecule and give its reported solubility (g/100 g solution). Nc1cccc2ccncc12 + CC(C)O + O
Solution: 0.883

Exercise: Next entry: CN1CCC(N(Cc2cccs2)c2ccccc2)CC1 + CC(C)O + O
Solution: 1.51

Exercise: Next entry: Nc1cccc2ccncc12 + CCCO + O
Solution: 1.11

Exercise: Next entry: CN1CCC(N(Cc2cccs2)c2ccccc2)CC1 + CCCO + O
Solution: 1.89

Exercise: Next entry: Cc1ccc2cc(Br)ccc2n1 + CC(C)O + O
Solution: 0.881

###

- run description: xn = mol fraction of the nth substance listed, in the solute-free solvent
- run parameters: 313.15 K; x2 = 0.1139
test readout: solubility (g/100 g solution)
Respond using a number only.

Exercise: Look at this molecule and give its reported solubility (g/100 g solution). Cc1ccc2cc(Br)ccc2n1 + CC(C)O + O
Solution: 0.655

Exercise: Next entry: Nc1cccc2ccncc12 + CC(C)O + O
Solution: 0.617

Exercise: Next entry: Nc1cccc2ccncc12 + CCCO + O
Solution: 0.764

Exercise: Next entry: CN1CCC(N(Cc2cccs2)c2ccccc2)CC1 + CCCO + O
Solution: 1.2

Exercise: Next entry: CN1CCC(N(Cc2cccs2)c2ccccc2)CC1 + CC(C)O + O
Solution: 0.952

###

- run description: xn = mol fraction of the nth substance listed, in the solute-free solvent
- run parameters: 293.15 K; x2 = 0.2307
test readout: solubility (g/100 g solution)

Exercise: Look at this compound and give its reported solubility (g/100 g solution). CN1CCC(N(Cc2cccs2)c2ccccc2)CC1 + CC(C)O + O
Solution: 1.28

Exercise: Next entry: Cc1ccc2cc(Br)ccc2n1 + CC(C)O + O
Solution: 0.671

Exercise: Next entry: Nc1cccc2ccncc12 + CCCO + O
Solution: 0.84

Exercise: Next entry: CN1CCC(N(Cc2cccs2)c2ccccc2)CC1 + CCCO + O
Solution: 1.6

Exercise: Next entry: Nc1cccc2ccncc12 + CC(C)O + O
Solution: 0.658

###

- run description: xn = mol fraction of the nth substance listed, in the solute-free solvent
- run parameters: 318.15 K; x2 = 0.2307
// F strictly below 2 in solubility (g/100 g solution); T otherwise

Exercise: Assess whether reported solubility (g/100 g solution) for Cc1ccc2cc(Br)ccc2n1 + CC(C)O + O sits at 2 or higher.
Solution: F

Exercise: Next entry: Nc1cccc2ccncc12 + CC(C)O + O
Solution: F

Exercise: Next entry: Nc1cccc2ccncc12 + CCCO + O
Solution: F

Exercise: Next entry: CN1CCC(N(Cc2cccs2)c2ccccc2)CC1 + CCCO + O
Solution: T

###

- run description: xn = mol fraction of the nth substance listed, in the solute-free solvent
- run parameters: 303.15 K; x2 = 0.06974
// Not satisfied strictly below 0.3 in solubility (g/100 g solution); Satisfied otherwise

Exercise: Assess whether reported solubility (g/100 g solution) for CN1CCC(N(Cc2cccs2)c2ccccc2)CC1 + CC(C)O + O sits at 0.3 or higher.
Solution: Satisfied

Exercise: Next entry: Nc1cccc2ccncc12 + CC(C)O + O
Solution: Not satisfied

Exercise: Next entry: CN1CCC(N(Cc2cccs2)c2ccccc2)CC1 + CCCO + O
Solution: Satisfied

Exercise: Next entry: Nc1cccc2ccncc12 + CCCO + O
Solution: Satisfied

Exercise: Next entry: Cc1ccc2cc(Br)ccc2n1 + CC(C)O + O
Solution: Not satisfied

###

- run description: xn = mol fraction of the nth substance listed, in the solute-free solvent
- run parameters: 298.15 K; x2 = 0.4117
test readout: solubility (g/100 g solution)
Respond using a number only.

Exercise: Look at this molecule and give its reported solubility (g/100 g solution). CN1CCC(N(Cc2cccs2)c2ccccc2)CC1 + CCCO + O
Solution: 2.4

Exercise: Next entry: Nc1cccc2ccncc12 + CCCO + O
Solution: 1.36

Exercise: Next entry: CN1CCC(N(Cc2cccs2)c2ccccc2)CC1 + CC(C)O + O
Solution: 1.93

Exercise: Next entry: Nc1cccc2ccncc12 + CC(C)O + O
Solution: 1.13

Exercise: Next entry: Cc1ccc2cc(Br)ccc2n1 + CC(C)O + O
Solution: 1.04

###

- run description: xn = mol fraction of the nth substance listed, in the solute-free solvent
- run parameters: 293.15 K; x2 = 0.1666
// Not met strictly below 0.6 in solubility (g/100 g solution); Met otherwise

Exercise: Assess whether reported solubility (g/100 g solution) for CN1CCC(N(Cc2cccs2)c2ccccc2)CC1 + CC(C)O + O sits at 0.6 or higher.
Solution: Met

Exercise: Next entry: Cc1ccc2cc(Br)ccc2n1 + CC(C)O + O
Solution: Not met

Exercise: Next entry: CN1CCC(N(Cc2cccs2)c2ccccc2)CC1 + CCCO + O
Solution: Met

Exercise: Next entry: Nc1cccc2ccncc12 + CCCO + O
Solution: Met

Exercise: Next entry: Nc1cccc2ccncc12 + CC(C)O + O
Solution: Not met

###

What solubility (g/100 g solution) was measured for each of the following?
- run description: xn = mol fraction of the nth substance listed, in the solute-free solvent
- run parameters: 318.15 K; x2 = 0.4117
Respond using a number only.

Exercise: Look at this molecule and give its reported solubility (g/100 g solution). Cc1ccc2cc(Br)ccc2n1 + CC(C)O + O
Solution: 1.81

Exercise: Next entry: Nc1cccc2ccncc12 + CCCO + O
Solution: 2.44

Exercise: Next entry: CN1CCC(N(Cc2cccs2)c2ccccc2)CC1 + CCCO + O
Solution: 3.45

Exercise: Next entry: Nc1cccc2ccncc12 + CC(C)O + O
Solution: 2.02

Exercise: Next entry: CN1CCC(N(Cc2cccs2)c2ccccc2)CC1 + CC(C)O + O
Solution: 2.77

Data credit: the CheMixHub drug solubility set
